Tested on: SARS-CoV-2 (USA-WA1/2020) in Calu-3 cells
Format: cell-based
Each entry below carries its reported dsRNA signal, AU High.
Field format: numeric only.

Sample records with dsRNA signal, AU High:
COMPOUND: c1nc2nc(Nc3ccc(N4CCOCC4)cc3)nc(NC3CCCCC3)c2[nH]1
dsRNA signal, AU High: 27234.6
//
COMPOUND: COc1cc2ncnc(Nc3ccc(F)c(Cl)c3)c2cc1OCCCN1CCOCC1.Cl [Gefitinib hydrochloride]
dsRNA signal, AU High: 0.0
//
COMPOUND: FC(F)(F)c1ccc(/C=C/c2nc(COc3ccc(CCCCn4ccnn4)cc3)co2)cc1
dsRNA signal, AU High: 19342.6

Turning now to a further compound:
Given CC(=O)Nc1cccc(-n2c(=O)n(C3CC3)c(=O)c3c(Nc4ccc(I)cc4F)n(C)c(=O)c(C)c32)c1.C[S+](C)[O-] [Trametinib DMSO solvate] , state its recorded dsRNA signal, AU High.
10918.5

---

Test system: SARS-CoV-2 (USA-WA1/2020) in Calu-3 cells
Assay type: cell-based
CONDITION_SUMMARY: low dose (100 nM), Calu-3, 48 h
Each entry below carries its reported dsRNA signal, AU Low.
Express the result in AU but write the number alone.

MOLECULE: COc1ccc(COc2ccc(Cc3cnc(N)nc3N)cc2OC)cc1
MEASURED_PROPERTY: dsRNA signal, AU Low
U: AU
MEASURED_NUMBER: 13531.9
//
MOLECULE: Cc1[nH]c(/C=C2\C(=O)Nc3ccccc32)c(C)c1CCC(=O)O [TSU-68 (SU6668,Orantinib)]
MEASURED_PROPERTY: dsRNA signal, AU Low
U: AU
MEASURED_NUMBER: 21696.8
//
MOLECULE: CNC(=O)c1ccc(-c2cnc3ncc(Cc4ccc5ncccc5c4)n3n2)cc1F
MEASURED_PROPERTY: dsRNA signal, AU Low
U: AU
MEASURED_NUMBER: 63091.3
//
MOLECULE: O=S(=O)(N=Cc1c(O)ccc2ccccc12)c1cccs1
MEASURED_PROPERTY: dsRNA signal, AU Low
U: AU
MEASURED_NUMBER: 46405.9
//
MOLECULE: O=C1NC(=O)/C(=C/c2cccc(C(F)(F)F)c2)S1 [SMI-4a]
MEASURED_PROPERTY: dsRNA signal, AU Low
U: AU
MEASURED_NUMBER: 12244.4

Turning now to a further molecule:
Missing value: dsRNA signal, AU Low, SARS-CoV-2 (USA-WA1/2020) in Calu-3 cells, entry O=C(c1ccc(F)c(F)c1Nc1ccc(I)cc1F)N1CC(O)([C@@H]2CCCCN2)C1 . Fill in?
21814.8

---

Tested on: SARS-CoV-2 (USA-WA1/2020) in Calu-3 cells
Format: cell-based
Each entry below carries its reported dsRNA signal, AU Low.
Field format: numeric only.

Sample records with dsRNA signal, AU Low:
COMPOUND: FC(F)(F)c1ccc(/C=C/c2nc(COc3ccc(CCCCn4ccnn4)cc3)co2)cc1 [Mubritinib (TAK 165)]
ASSAY_TARGET: SARS-CoV-2 (USA-WA1/2020) in Calu-3 cells
MEASURED_PROPERTY: dsRNA signal, AU Low
MEASURED_NUMBER: 48533.2

COMPOUND: COc1cc2ncnc(Nc3ccc(F)c(Cl)c3)c2cc1OCCCN1CCOCC1.Cl [Gefitinib hydrochloride]
ASSAY_TARGET: SARS-CoV-2 (USA-WA1/2020) in Calu-3 cells
MEASURED_PROPERTY: dsRNA signal, AU Low
MEASURED_NUMBER: 28000.5

COMPOUND: CC(=O)Nc1cccc(-n2c(=O)n(C3CC3)c(=O)c3c(Nc4ccc(I)cc4F)n(C)c(=O)c(C)c32)c1.C[S+](C)[O-] [Trametinib DMSO solvate]
ASSAY_TARGET: SARS-CoV-2 (USA-WA1/2020) in Calu-3 cells
MEASURED_PROPERTY: dsRNA signal, AU Low
MEASURED_NUMBER: 24279.8

Given c1nc2nc(Nc3ccc(N4CCOCC4)cc3)nc(NC3CCCCC3)c2[nH]1 [Reversine] , state its recorded dsRNA signal, AU Low.
49415.3

---

Tested on: SARS-CoV-2 (USA-WA1/2020) in Calu-3 cells
Type: cell-based
CONDITION_SUMMARY: low dose (100 nM), Calu-3, 48 h
Each entry below carries its reported dsRNA signal, AU Low.
Express the result in AU but write the number alone.

Sample records with dsRNA signal, AU Low:
MOLECULE: CCc1c(C(=O)NNC(=O)C(O)c2cc(F)cc(F)c2)ccc(O)c1C (stereo not shown)
dsRNA signal, AU Low, AU: 20264.2
--
MOLECULE: COc1cc2nccc(Oc3ccc(NC(=O)C4(C(=O)Nc5ccc(F)cc5)CC4)cc3)c2cc1OC.O=C(O)C[C@H](O)C(=O)O [Cabozantinib malate (XL184)]
dsRNA signal, AU Low, AU: 24276.1
--
MOLECULE: Cn1cc(C2=C(c3cccc(N)c3)C(=O)NC2=O)c2ccccc21
dsRNA signal, AU Low, AU: 2975.5

Turning now to a further molecule:
Given COCCNCc1ccc(-c2cc3nccc(Oc4ccc(NC(=S)NC(=O)Cc5ccc(F)cc5)cc4F)c3s2)nc1 , state its recorded dsRNA signal, AU Low.
42710.5

---

Each entry below carries its reported dsRNA signal, AU Low.
System: SARS-CoV-2 (USA-WA1/2020) in Calu-3 cells
Assay type: cell-based
CONDITION_SUMMARY: low dose (100 nM), Calu-3, 48 h
Structures can show the parent of a compound that is named as a salt.
Express the result in AU but write the number alone.

Sample records with dsRNA signal, AU Low:
COMPOUND: O=C(Nc1nc2ccccc2n1CCN1CCOCC1)c1cccc([N+](=O)[O-])c1 [IRAK-1-4 Inhibitor I]
MEASURED_PROPERTY: dsRNA signal, AU Low
MEASURED_NUMBER: 22363.0
//
COMPOUND: O=C(O)c1ccc(Nc2ncc3c(n2)-c2ccc(Cl)cc2C(c2c(F)cccc2F)=NC3)cc1 [MLN8054]
MEASURED_PROPERTY: dsRNA signal, AU Low
MEASURED_NUMBER: 9929.7
//
COMPOUND: C#Cc1cccc(Nc2ncnc3cc(OCCOC)c(OCCOC)cc23)c1 [Erlotinib Hydrochloride]
MEASURED_PROPERTY: dsRNA signal, AU Low
MEASURED_NUMBER: 52457.7
//
COMPOUND: CC(C)Oc1ccc(-c2cnc3c(-c4ccnc5ccccc45)cnn3c2)cc1 [DMH-1]
MEASURED_PROPERTY: dsRNA signal, AU Low
MEASURED_NUMBER: 45359.2
//
COMPOUND: Cl.O=c1[nH]ccc2c(S(=O)(=O)N3CCCNCC3)cccc12 [Hydroxyfasudil hydrochloride]
MEASURED_PROPERTY: dsRNA signal, AU Low
MEASURED_NUMBER: 751.7

Given c1ccc(-c2nn3c(c2-c2ccnc4cc(OCCN5CCOCC5)ccc24)CCC3)nc1 [LY2109761] , state its recorded dsRNA signal, AU Low.
5823.5

Also O=C(O)c1ccccc1Nc1cccc(C(F)(F)F)c1 [Flufenamic acid] ?
15182.6

Also COc1ccc2c(c1)c(C1=C(c3c[nH]c4ccccc34)C(=O)NC1=O)cn2CCCN(C)C [Go 6983] ?
26190.1

Also CCOc1ccc(Nc2ccc(/C(=C3C=C/C(=[N+](/CC)Cc4cccc(S(=O)(=O)[O-])c4)C=C/3C)c3ccc(N(CC)Cc4cccc(S(=O)(=O)O)c4)cc3C)cc2)cc1 [Brilliant Blue G] ?
31753.4

Also COc1c(C)c(C(=O)c2ccc(N)c(C(=O)[O-])c2)n2ccccc12.[Na+] [SSR128129E] ?
27624.5

---

Tested on: SARS-CoV-2 (USA-WA1/2020) in Calu-3 cells
Type: cell-based
CONDITION_SUMMARY: low dose (100 nM), Calu-3, 48 h
Each entry below carries its reported dsRNA signal, AU Low.
Express the result in AU but write the number alone.

Sample records with dsRNA signal, AU Low:
MOLECULE: CO[C@H]1C[C@@H]2CC[C@@H](C)[C@@](O)(O2)C(=O)C(=O)N2CCCC[C@H]2C(=O)O[C@H]([C@H](C)C[C@@H]2CC[C@@H](O)[C@H](OC)C2)CC(=O)[C@H](C)/C=C(\C)[C@@H](O)[C@@H](OC)C(=O)[C@H](C)C[C@H](C)/C=C/C=C/C=C/1C [Rapamycin (Sirolimus)]
U: AU
dsRNA signal, AU Low: 58744.6
//
MOLECULE: COc1ccccc1-c1cc(Nc2cccc(CS(N)(=O)=O)c2)ncn1
U: AU
dsRNA signal, AU Low: 20712.1
//
MOLECULE: CCN1/C(=C/C(C)=O)Sc2ccc(OC)cc21
U: AU
dsRNA signal, AU Low: 61445.9
//
MOLECULE: Cl.O=C(NC1CCNCC1)c1[nH]ncc1NC(=O)c1c(Cl)cccc1Cl [AT7519 Hydrochloride]
U: AU
dsRNA signal, AU Low: 18031.2
//
MOLECULE: NCC(=O)Nc1ccc(-n2nc(C(F)(F)F)cc2-c2ccc3c(ccc4ccccc43)c2)cc1
U: AU
dsRNA signal, AU Low: 17813.3
//
MOLECULE: C[n+]1cc2c3c(ccc2c2ccc4cc5c(cc4c21)OCO5)OCO3 [Sanguinarine chloride]
U: AU
dsRNA signal, AU Low: 15548.2
//
MOLECULE: CCn1c(N)c(C(=O)NC)c(=O)c2ccc(C#C[C@@](C)(O)COC)nc21
U: AU
dsRNA signal, AU Low: 34484.3
//
MOLECULE: NC(=S)N/N=C/c1ncccc1N
U: AU
dsRNA signal, AU Low: 17637.1

Given CC(C)(C)n1nc(-c2ccc(Cl)cc2)c2c(N)ncnc21 , state its recorded dsRNA signal, AU Low.
40414.9

Also CN1CCC(COc2cnc(-c3cccc(Cn4nc(-c5cccc(C#N)c5)ccc4=O)c3)nc2)CC1 ?
47689.1

Also Cc1c[nH]c2ccccc12 ?
1602.7
